Could you please report measured cytotoxicity at 10 µM for the items listed next?
# PROTOCOL NOTES: Toxicity liver stage against HepG2, at 10uM
# Assay type: cell-based
# Parameters: test concentration 10 uM, cell line HepG2-A16-CD81EGFP
# CONDITION NOTES: human, HepG2-A16-CD81EGFP cells; read-out: INHIBITION
Number in %, nothing else.

get_value(item= CC(C)COC1CCN(C(=O)c2ccc(C(F)(F)F)[nH]c2=O)CC1 , readout=cytotoxicity at 10 µM) returns 0.0436

get_value(item= Cc1nc(COCc2nc3c(o2)CN(C(=O)c2ccc[nH]2)C3)cs1 , readout=cytotoxicity at 10 µM) returns 0.657

get_value(item= O=C(c1ccccc1)N1C[C@H]2CC[C@@H](C1)N(C(=O)CN1CCOCC1)C2 , readout=cytotoxicity at 10 µM) returns 9.23

get_value(item= Cc1ncc2c(n1)CN(CCOc1ccc3c(c1)CCC(=O)N3)CC2 , readout=cytotoxicity at 10 µM) returns -8.12

get_value(item= CN(C)CCN(Cc1ccccc1)C(=O)C1=NNC(=O)CC1 , readout=cytotoxicity at 10 µM) returns -6.49

get_value(item= Cc1c(C(=O)N2CC(Cc3nccc4ccn(C)c34)C2)cnn1C , readout=cytotoxicity at 10 µM) returns -26.3
